B1: Hairpin Ribozyme (parent)
chain: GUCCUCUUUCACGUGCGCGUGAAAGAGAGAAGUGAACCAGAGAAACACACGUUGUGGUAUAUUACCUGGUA

Variants of: B1
Assay: self-cleavage, relative activity (ratio to wild type); higher = more cleavage; co-transcriptional
quantity.measured: self-cleavage

variant.spec | test.value
C6A A59U | 0.107
A28G U52C | 0.763
A35U A44U | 0.0832
